systemUnderTest: MAGL (Mus musculus, UniProt O35678)
Construct: Proteomes (mouse brain membrane fraction or cell lysates)
methodDescription: In vitro competitive activity-based protein profiling (mouse), MAGL gel band
testConditions: mouse
measuredMetric: IC50

Example entries begin here.
# compound, IC50
records = [
    ("CC(=O)Nc1ccn(C(=O)N2CCC3(CCCN3Cc3ccc(C(F)(F)F)cc3OC3CCS(=O)(=O)CC3)CC2)n1 [Example 87]", "100 to 1000 nM"),
    ("CC(=O)Nc1ccn(C(=O)N2CCC3(CCCN3Cc3ccc(C(F)(F)F)cc3Oc3cncnc3)CC2)n1 [Example 83]", "≤ 100 nM"),
]

We now examine a further compound.
Look up IC50 for this compound: CS(=O)(=O)Nc1ccn(C(=O)N2CCN(Cc3cccc(Cl)c3N3CC[C@H](CF)C3)CC2)n1 [Example 121]
≤ 100 nM

====

systemUnderTest: MAGL (Mus musculus, UniProt O35678)
Construct: Proteomes (mouse brain membrane fraction or cell lysates)
Sequence (O35678 1-303): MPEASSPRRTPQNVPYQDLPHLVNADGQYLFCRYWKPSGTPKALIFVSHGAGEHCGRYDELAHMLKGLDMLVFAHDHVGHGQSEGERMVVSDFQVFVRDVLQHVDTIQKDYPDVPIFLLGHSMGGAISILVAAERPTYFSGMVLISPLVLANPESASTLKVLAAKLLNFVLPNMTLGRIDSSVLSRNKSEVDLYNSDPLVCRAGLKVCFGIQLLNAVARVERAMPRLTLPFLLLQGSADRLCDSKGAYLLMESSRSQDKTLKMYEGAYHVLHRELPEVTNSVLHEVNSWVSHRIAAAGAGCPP
methodDescription: In vitro competitive activity-based protein profiling (mouse), MAGL gel band
testConditions: mouse
Procedure: In Vitro Competitive Activity-Based Protein Profiling (Mouse). Proteomes (mouse brain membrane fraction or cell lysates) (50 μL, 1.0 mg/mL total protein concentration) were preincubated with varying concentrations of inhibitors at 37° C. […] Following gel imaging, serine hydrolase activity was determined by measuring fluorescent intensity of gel bands corresponding to MAGL, ABHD6, and FAAH, using ImageJ 1.43u software.
Documented IC50 across a set of molecules

# molecule, systemUnderTest, measuredMetric, valueMeasured
rows = [
    ("CC(=O)Nc1ccn(C(=O)N2CCC3(CCCN3Cc3cc(N4CC5CN(C(C)=O)CC5C4)cc(C(F)(F)F)c3)CC2)n1 (stereo not shown) [Example 69]", "MAGL (Mus musculus, UniProt O35678)", "IC50", "100 to 1000 nM"),
    ("CC(=O)Nc1ccn(C(=O)N2CCN(Cc3ccc(C(F)(F)F)cc3N3CCC4(CCOCC4)C3)CC2)n1 [Example 45]", "MAGL (Mus musculus, UniProt O35678)", "IC50", "≤ 100 nM"),
    ("CC(=O)Nc1ccn(C(=O)N2CCC3(CCCN3Cc3ccc(Cl)cc3N3CCOCC3)CC2)n1 [Example 16]", "MAGL (Mus musculus, UniProt O35678)", "IC50", "100 to 1000 nM"),
    ("CC(=O)Nc1ccn(C(=O)N2CCC3(CCCN3Cc3ccc(Cl)cc3N3CCC(F)CC3)CC2)n1 [Example 18]", "MAGL (Mus musculus, UniProt O35678)", "IC50", "≤ 100 nM"),
    ("CC(=O)Nc1ccn(C(=O)N2CCN(Cc3ccc(Cl)cc3N3CCC4(CCOCC4)C3)CC2)n1 [Example 56]", "MAGL (Mus musculus, UniProt O35678)", "IC50", "≤ 100 nM"),
    ("CC(=O)Nc1ccn(C(=O)N2CCN(Cc3ccc(C(F)(F)F)cc3Oc3cncnc3)CC2)n1 [Example 73]", "MAGL (Mus musculus, UniProt O35678)", "IC50", "≤ 100 nM"),
]

# next molecule below
// lookup IC50 for CC(=O)Nc1ccn(C(=O)N2CCC3(CCCN3Cc3cc(N4C5CCC4COC5)cc(C(F)(F)F)c3)CC2)n1 [Example 62]
≤ 100 nM

====

systemUnderTest: MAGL (Mus musculus, UniProt O35678)
Construct: Proteomes (mouse brain membrane fraction or cell lysates); from tissue; host or cells: mouse brain membrane fraction (or cell lysates)
Sequence (O35678 1-303): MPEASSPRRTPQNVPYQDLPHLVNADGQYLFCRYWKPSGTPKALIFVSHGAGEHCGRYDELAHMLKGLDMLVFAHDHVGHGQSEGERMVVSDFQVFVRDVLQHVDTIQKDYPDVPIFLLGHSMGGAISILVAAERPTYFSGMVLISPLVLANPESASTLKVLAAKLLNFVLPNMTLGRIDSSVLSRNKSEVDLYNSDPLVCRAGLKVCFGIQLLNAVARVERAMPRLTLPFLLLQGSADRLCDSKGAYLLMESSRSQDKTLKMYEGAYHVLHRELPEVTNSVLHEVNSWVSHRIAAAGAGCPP
methodDescription: Mouse brain proteomes from inhibitor treated mice (oral gavage, sacrificed 4 h after administration)
Type: in vivo
testConditions: read-out: MAGL % inh. 5 mg/kg
// inhibition at 5 mg/kg lookup, one value per entry

# compound, measuredMetric, valueMeasured
data = [
    ("CC(=O)Nc1ccn(C(=O)N2CCN(Cc3ccc(C(F)(F)F)cc3N3CCC(F)CC3)CC2)n1", "inhibition at 5 mg/kg", "≥ 75%"),
    ("CC(=O)Nc1ccn(C(=O)N2CCN(Cc3ccc(Cl)cc3N3CCC(C(=O)O)CC3)CC2)n1", "inhibition at 5 mg/kg", "0 to 25%"),
    ("CC(=O)Nc1ccn(C(=O)N2CCC3(CCCN3Cc3ccc(C(F)(F)F)cc3Oc3cncnc3)CC2)n1", "inhibition at 5 mg/kg", "0 to 25%"),
    ("CS(=O)(=O)Nc1ccn(C(=O)N2CCN(Cc3ccc(Cl)c(N4CC5COCC5C4)c3)CC2)n1 (centres unmarked)", "inhibition at 5 mg/kg", "0 to 25%"),
    ("CC(=O)Nc1ccn(C(=O)N2CCC3(CCCN3Cc3ccc(Cl)cc3N3CCC4(C3)CN(S(C)(=O)=O)C4)CC2)n1", "inhibition at 5 mg/kg", "0 to 25%"),
]

Given the entry "CS(=O)(=O)Nc1ccn(C(=O)N2CCN(Cc3cc(Cl)ccc3N3CCOCC3)CC2)n1" , report its measured inhibition at 5 mg/kg.
25 to 50%

Next compound: "CC(=O)Nc1ccn(C(=O)N2CCN(Cc3cc(OC4CCN(C5CC5)CC4)cc(C(F)(F)F)c3)CC2)n1"
0 to 25%

Can you check "CS(=O)(=O)Nc1ccn(C(=O)N2CCN(Cc3ccc(Cl)c(N4C5CCC4COC5)c3)CC2)n1" next?
0 to 25%

Also need "CC(=O)Nc1ccn(C(=O)N2CCN(Cc3ccc(C(F)(F)F)cc3N3CCCCC3)CC2)n1" , thanks.
≥ 75%

Same question for "Cc1ccc(CN2CCN(C(=O)n3ccc(NS(C)(=O)=O)n3)CC2)c(N2CC3CCC(C2)O3)c1" please.
25 to 50%

Let us now turn to "CC(=O)Nc1ccn(C(=O)N2CCN(Cc3ccc(Cl)cc3N3CC4CCC(C3)O4)CC2)n1"
25 to 50%

Would you kindly repeat that for "CC(=O)Nc1ccn(C(=O)N2CCN(Cc3ccc(Cl)cc3N3CCCCC3)CC2)n1" ?
≥ 75%

Another: "CC(=O)Nc1ccn(C(=O)N2CCN(Cc3ccc(C(F)(F)F)cc3N3CCOCC3)CC2)n1"
50 to 75%

Likewise for "CS(=O)(=O)Nc1ccn(C(=O)N2CCN(Cc3ccc(C(F)(F)F)cc3-c3nncs3)CC2)n1" ?
0 to 25%

====

Catalogue of compounds with associated inhibition at 1 µM
systemUnderTest: MAGL (Mus musculus)
Construct: Proteomes (mouse brain membrane fraction or cell lysates); from tissue; host or cells: mouse brain membrane fraction (or cell lysates)
Sequence (O35678 1-303): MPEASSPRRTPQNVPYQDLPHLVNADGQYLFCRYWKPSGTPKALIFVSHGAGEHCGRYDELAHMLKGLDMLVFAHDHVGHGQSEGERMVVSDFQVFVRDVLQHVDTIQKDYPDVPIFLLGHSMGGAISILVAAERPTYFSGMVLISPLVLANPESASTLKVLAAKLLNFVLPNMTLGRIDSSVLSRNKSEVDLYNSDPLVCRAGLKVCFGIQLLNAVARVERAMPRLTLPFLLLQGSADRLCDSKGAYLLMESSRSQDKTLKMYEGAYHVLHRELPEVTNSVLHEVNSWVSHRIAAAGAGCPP
methodDescription: In vitro competitive activity-based protein profiling (mouse), MAGL gel band
Format: biochemical
testConditions: read-out: MAGL % inh. 1 μM

Example entries begin here.
# compound, inhibition at 1 µM
records = [
    ("Cc1c(CN2CCCC23CCN(C(=O)n2ccc(NS(C)(=O)=O)n2)CC3)cccc1N1CC2CCC(C1)O2", "50 to 75%"),
    ("CC(=O)Nc1ccn(C(=O)N2CCC3(CCCN3Cc3cc(Oc4nc5ccccc5s4)cc(C(F)(F)F)c3)CC2)n1", "≥ 75%"),
    ("CS(=O)(=O)Nc1ccn(C(=O)N2CCN(Cc3cc(N4CCCC4)ccc3Cl)CC2)n1", "≥ 75%"),
]

Name the reported inhibition at 1 µM value associated with the compound "CC(=O)Nc1ccn(C(=O)N2CCN(Cc3cc(OCC(=O)N4CCCC4)cc(C(F)(F)F)c3)CC2)n1"
≥ 75%

And then "CC(C)C(=O)Nc1ccn(C(=O)N2CCN(Cc3ccc(C(F)(F)F)cc3N3CCCC3)CC2)n1" , what is it?
≥ 75%

Try this compound too: CC(=O)N1CC2CN(c3cc(CN4CCN(C(=O)n5ccc(NS(C)(=O)=O)n5)CC4)ccc3Cl)CC2C1 (stereo not drawn)
≥ 75%

And the next one, "CS(=O)(=O)Nc1ccn(C(=O)N2CCN(Cc3ccc(N4CCC(C(=O)O)CC4)c(C(F)(F)F)c3)CC2)n1" ?
0 to 25%

How about "CS(=O)(=O)Nc1ccn(C(=O)N2CCN(Cc3ccc(C(F)(F)F)c(N4CCN(CC(=O)O)CC4)c3)CC2)n1" ?
0 to 25%

Repeat with "CC(=O)Nc1ccn(C(=O)N2CCN(Cc3ccc(C(F)(F)F)cc3N3CCC(NC(C)=O)CC3)CC2)n1"
≥ 75%
